Source of measurements: patent US10538555B2

Give IC50 for every item shown.
Biological target: Human PD-L1/PD-1 (Homo sapiens, UniProt Q9NZQ7)
Construct: TVMV protease cleavage site (C); made in house; host or cells: HEK293T cells
Sequence (Q9NZQ7 with tags, fused parts or gaps): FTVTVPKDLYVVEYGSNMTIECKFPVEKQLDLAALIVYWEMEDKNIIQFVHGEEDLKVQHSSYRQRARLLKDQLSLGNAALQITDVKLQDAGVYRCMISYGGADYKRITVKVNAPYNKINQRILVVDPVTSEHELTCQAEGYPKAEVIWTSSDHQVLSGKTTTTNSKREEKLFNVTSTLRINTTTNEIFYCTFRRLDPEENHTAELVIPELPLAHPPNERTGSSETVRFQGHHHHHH
Assay: HTRF Human PD-L1/PD-1 binding assay (PD-1-Ig/PD-L1-His)
Settings: PD-L1-His 10 nM, PD-1-Ig 20 nM; class symbol; read-out: HTRF Human PD-L1/PD-1 Binding Assay IC50 Range
Excerpt: Methods for Testing the Ability of Macrocyclic Peptides to Compete for the Binding of PD-1 to PD-L1 Using Homogenous Time-Resolved Fluorescence (HTRF) Binding Assays The ability of the macrocyclic peptides of the present disclosure to bind to PD-L1 was investigated using a PD-1/PD-L1 Homogenous Time-Resolved Fluorescence (HTRF) binding assay. Homogenous Time-Resolved Fluorescence (HTRF) Assays of Binding of Soluble PD-1 to Soluble PD-L1. […]
Where a SMILES comes first, the peptide text is derived from it. Bridges are numbered along the chain shown (N, C = ends). [ ]: non-standard residue; d: D form. ξ: configuration not given here. Phe(4-F) = N[C@@H](Cc1ccc(F)cc1)C(=O)O; Bta = N[C@@H](Cc1csc2ccccc12)C(=O)O; Hyp = O=C(O)[C@@H]1C[C@@H](O)CN1; NMeF = CN[C@@H](Cc1ccccc1)C(=O)O; NMeNle = CCCC[C@H](NC)C(=O)O; NMeV = CN[C@H](C(=O)O)C(C)C; dPip = O=C(O)[C@H]1CCCCN1; NMeA = CN[C@@H](C)C(=O)O; ξC = NC(CS)C(=O)O

Please report IC50 for the following compound: CCCC[C@H]1C(=O)N(C)[C@@H](C)C(=O)N[C@@H](CCCNC(=N)N)C(=O)NC(C(=O)NCC(N)=O)CSCC(=O)N[C@@H](Cc2ccc(O)cc2)C(=O)N(C)[C@@H](C)C(=O)N[C@@H](CC(N)=O)C(=O)N2CCC[C@H]2C(=O)N[C@@H](CC(N)=O)C(=O)N[C@@H](CC(C)C)C(=O)N2CCC[C@H]2C(=O)N[C@@H](Cc2c[nH]c3ccccc23)C(=O)N[C@@H](CO)C(=O)N[C@@H](Cc2c[nH]c3ccccc23)C(=O)N1C (stereo partly shown) [Example 9136] ({CH2CO}-Y[NMeA]NPNLPWSW[NMeNle][NMeA]R[ξC]G-NH2; thioether N-14)
10 to 99.9 nM

Return reported IC50. Input compound: CCCC[C@H]1C(=O)N(C)[C@@H](CCCC)C(=O)N[C@@H](CCCNC(=N)N)C(=O)NC(C(=O)NCC(N)=O)CSCC(=O)N[C@@H](Cc2ccc(O)cc2)C(=O)N(C)[C@@H](C)C(=O)N[C@@H](CC(N)=O)C(=O)N2CCC[C@H]2C(=O)N[C@@H](Cc2cnc[nH]2)C(=O)N[C@@H](CC(C)C)C(=O)N2CCC[C@H]2C(=O)N[C@@H](Cc2c[nH]c3ccccc23)C(=O)N[C@@H](CO)C(=O)N[C@@H](Cc2csc3ccccc23)C(=O)N1C (stereo partly shown) [Example 10045] ({CH2CO}-Y[NMeA]NPHLPWS[Bta][NMeNle][NMeNle]R[ξC]G-NH2; thioether N-14)
10 to 99.9 nM

Name the recorded IC50 of the compound listed here: CCCC[C@H]1C(=O)N2CCC[C@@H]2C(=O)N[C@@H](CC(=O)O)C(=O)N[C@@H](C(C)C)C(=O)N(C)[C@@H](C(C)C)C(=O)N[C@@H](CCC(N)=O)C(=O)N2CCCC[C@@H]2C(=O)N[C@@H](Cc2c[nH]c3ccccc23)C(=O)N[C@@H](Cc2ccc(O)cc2)C(=O)N[C@@H](CC(C)C)C(=O)N[C@H](C(=O)NCC(N)=O)CSCC(=O)N[C@@H](Cc2ccc(F)cc2)C(=O)N(C)[C@@H](Cc2ccccc2)C(=O)N1C [Example 9246] ({CH2CO}-[Phe(4-F)][NMeF][NMeNle][dP]DV[NMeV]Q[dPip]WYLCG-NH2; thioether N-13)
1000 to 10000 nM

Give IC50 for the following compound: CCCC[C@H]1C(=O)N(C)[C@@H](CCCC)C(=O)N[C@@H](CCC(=O)O)C(=O)N[C@H](C(=O)NCC(N)=O)CSCC(=O)N[C@@H](Cc2ccc(O)cc2)C(=O)N(C)[C@@H](C)C(=O)N[C@@H](CC(N)=O)C(=O)N2CCC[C@H]2C(=O)N[C@@H](CO)C(=O)N[C@@H](CCC(N)=O)C(=O)N2C[C@H](O)C[C@H]2C(=O)N[C@@H](Cc2c[nH]c3ccccc23)C(=O)N[C@@H](CO)C(=O)N[C@@H](Cc2c[nH]c3ccccc23)C(=O)N1C [Example 5204] ({CH2CO}-Y[NMeA]NPSQ[Hyp]WSW[NMeNle][NMeNle]ECG-NH2; thioether N-14)
1 to 9.9 nM

* * *

Kindly state IC50 for each of the entries shown.
Target: Human PD-L1/PD-1 (Homo sapiens)
Construct: TVMV protease cleavage site (C); made in house; host or cells: HEK293T cells
Assay: HTRF Human PD-L1/PD-1 binding assay (PD-1-Ig/PD-L1-His)
Conditions: PD-L1-His 10 nM, PD-1-Ig 20 nM; class symbol; read-out: HTRF Human PD-L1/PD-1 Binding Assay IC50 Range
From the text: Methods for Testing the Ability of Macrocyclic Peptides to Compete for the Binding of PD-1 to PD-L1 Using Homogenous Time-Resolved Fluorescence (HTRF) Binding Assays The ability of the macrocyclic peptides of the present disclosure to bind to PD-L1 was investigated using a PD-1/PD-L1 Homogenous Time-Resolved Fluorescence (HTRF) binding assay. Homogenous Time-Resolved Fluorescence (HTRF) Assays of Binding of Soluble PD-1 to Soluble PD-L1. […]
Where a SMILES comes first, the peptide text is derived from it. Bridges are numbered along the chain shown (N, C = ends). [ ]: non-standard residue; d: D form. ξ: configuration not given here. Phe(4-CH2NH2) = NCc1ccc(C[C@H](N)C(=O)O)cc1; Phe(4-F) = N[C@@H](Cc1ccc(F)cc1)C(=O)O; 2Nal = N[C@@H](Cc1ccc2ccccc2c1)C(=O)O; Hyp = O=C(O)[C@@H]1C[C@@H](O)CN1; NMeF = CN[C@@H](Cc1ccccc1)C(=O)O; NMeL = CN[C@@H](CC(C)C)C(=O)O; NMeNle = CCCC[C@H](NC)C(=O)O; dPip = O=C(O)[C@H]1CCCCN1; hSer = N[C@@H](CCO)C(=O)O; NMeA = CN[C@@H](C)C(=O)O; Orn = NCCC[C@H](N)C(=O)O; Abu = CC[C@H](N)C(=O)O; ξC = NC(CS)C(=O)O; Sar = CNCC(=O)O

Entry CCCC[C@H]1C(=O)N2CCC[C@@H]2C(=O)N[C@@H](CO)C(=O)N[C@@H](C)C(=O)N(C)[C@@H](Cc2ccccc2)C(=O)N[C@@H](Cc2ccc(O)cc2)C(=O)N(C)CC(=O)N[C@@H](Cc2c[nH]c3ccccc23)C(=O)N[C@@H](Cc2ccc(O)cc2)C(=O)N[C@@H](CC(C)C)C(=O)N[C@H](C(=O)NCC(N)=O)CSCC(=O)N[C@@H](Cc2ccccc2)C(=O)N(C)[C@@H](Cc2ccccc2)C(=O)N1C [Example 10054] ({CH2CO}-F[NMeF][NMeNle][dP]SA[NMeF]Y[Sar]WYLCG-NH2; thioether N-13) needs its IC50 filled in; supply it.
100 to 990 nM

Using known records, supply IC50 for CCCC[C@H]1C(=O)N2CCC[C@@H]2C(=O)N[C@@H](CC(=O)O)C(=O)N[C@@H](C(C)C)C(=O)N(C)[C@@H](CC(C)C)C(=O)N[C@@H](Cc2ccc(O)cc2)C(=O)N2CCC[C@@H]2C(=O)N[C@@H](Cc2c[nH]c3ccccc23)C(=O)N[C@@H](Cc2ccc(O)cc2)C(=O)N[C@@H](CCCN)C(=O)N[C@H](C(=O)NCC(N)=O)CSCC(=O)N[C@@H](Cc2ccc(F)cc2)C(=O)N(C)[C@@H](Cc2ccccc2)C(=O)N1C [Example 9251] ({CH2CO}-[Phe(4-F)][NMeF][NMeNle][dP]DV[NMeL]Y[dP]WY[Orn]CG-NH2; thioether N-13)
100 to 990 nM

Using known records, supply IC50 for CCCC[C@H]1C(=O)N2CCC[C@@H]2C(=O)N[C@@H](CO)C(=O)N[C@@H](CC)C(=O)N(C)[C@@H](Cc2ccccc2)C(=O)N[C@@H](Cc2ccc(O)cc2)C(=O)N2CCCC[C@@H]2C(=O)N[C@@H](Cc2c[nH]c3ccccc23)C(=O)N[C@@H](Cc2ccc(O)cc2)C(=O)N[C@@H](CC(C)C)C(=O)N[C@H](C(=O)NCC(N)=O)CSCC(=O)N[C@@H](Cc2ccccc2)C(=O)N(C)[C@@H](Cc2ccccc2)C(=O)N1C [Example 10060] ({CH2CO}-F[NMeF][NMeNle][dP]S[Abu][NMeF]Y[dPip]WYLCG-NH2; thioether N-13)
10 to 99.9 nM

Please report IC50 for the following molecule: CCCC[C@H]1C(=O)N(C)CC(=O)N[C@@H](CC(N)=O)C(=O)N[C@@H](C(C)C)C(=O)N(C)[C@@H](Cc2ccccc2)C(=O)N[C@@H](CC(=O)O)C(=O)N(C)CC(=O)N[C@@H](Cc2c[nH]c3ccccc23)C(=O)N[C@@H](Cc2ccc(CN)cc2)C(=O)N[C@@H](CC(C)C)C(=O)N[C@H](C(=O)NCC(N)=O)CSCC(=O)N[C@@H](Cc2ccccc2)C(=O)N(C)[C@@H](Cc2ccccc2)C(=O)N1C [Example 3212] ({CH2CO}-F[NMeF][NMeNle][Sar]NV[NMeF]D[Sar]W[Phe(4-CH2NH2)]LCG-NH2; thioether N-13)
10 to 99.9 nM

Give the measured IC50 for CCCC[C@H]1C(=O)N(C)[C@@H](CCCC)C(=O)N[C@@H](CCCNC(=N)N)C(=O)N[C@H](C(=O)NCC(N)=O)CSCC(=O)N[C@@H](Cc2ccc(O)cc2)C(=O)N(C)[C@@H](C)C(=O)N[C@@H](CO)C(=O)N2CCC[C@H]2C(=O)N[C@@H](Cc2cnc[nH]2)C(=O)N[C@@H](CCC(N)=O)C(=O)N2C[C@H](O)C[C@H]2C(=O)N[C@@H](Cc2c[nH]c3ccccc23)C(=O)N[C@@H](CO)C(=O)N[C@@H](Cc2c[nH]c3ccccc23)C(=O)N1C [Example 5178] ({CH2CO}-Y[NMeA]SPHQ[Hyp]WSW[NMeNle][NMeNle]RCG-NH2; thioether N-14)
1 to 9.9 nM

Give the value of IC50 reported for the following: CCCC[C@H]1C(=O)N[C@@H](CC(N)=O)C(=O)N2CCC[C@H]2C(=O)N[C@@H](CO)C(=O)N[C@@H](CCO)C(=O)N2C[C@H](O)C[C@H]2C(=O)N[C@@H](Cc2c[nH]c3ccccc23)C(=O)N[C@@H](CO)C(=O)N[C@@H](Cc2c[nH]c3ccccc23)C(=O)N(C)[C@@H](C)C(=O)N(C)[C@@H](C)C(=O)N[C@@H](CCC(=O)O)C(=O)NC(C(=O)NCC(N)=O)CSCC(=O)N[C@@H](Cc2ccc(O)cc2)C(=O)N1C (some centres unmarked) [Example 10212] ({CH2CO}-Y[NMeNle]NPS[hSer][Hyp]WSW[NMeA][NMeA]E[ξC]G-NH2; thioether N-14)
1000 to 10000 nM

Indicate the recorded IC50 value for this molecule: CCCC[C@H]1C(=O)N(C)CC(=O)N[C@@H](CC(=O)O)C(=O)N[C@@H](C(C)C)C(=O)N(C)[C@@H](Cc2ccccc2)C(=O)N[C@@H](Cc2ccc(O)cc2)C(=O)N(C)CC(=O)N[C@@H](Cc2c[nH]c3ccccc23)C(=O)N[C@@H](Cc2ccc(O)cc2)C(=O)N[C@@H](CC(C)C)C(=O)N[C@H](C(=O)NCC(N)=O)CSCC(=O)N[C@@H](Cc2ccc3ccccc3c2)C(=O)N(C)[C@@H](Cc2ccccc2)C(=O)N1C [Example 3233] ({CH2CO}-[2Nal][NMeF][NMeNle][Sar]DV[NMeF]Y[Sar]WYLCG-NH2; thioether N-13)
1000 to 10000 nM

Entry CCCC[C@H]1C(=O)N2CCC[C@@H]2C(=O)N[C@@H](CC(=O)O)C(=O)N[C@@H](C(C)C)C(=O)N(C)[C@@H](CC(C)C)C(=O)N[C@@H](CCC(N)=O)C(=O)N2CCCC[C@@H]2C(=O)N[C@@H](Cc2c[nH]c3ccccc23)C(=O)N[C@@H](Cc2ccc(O)cc2)C(=O)N[C@@H](CCCN)C(=O)N[C@H](C(=O)NCC(N)=O)CSCC(=O)N[C@@H](Cc2ccc(F)cc2)C(=O)N(C)[C@@H](Cc2ccccc2)C(=O)N1C [Example 9256] ({CH2CO}-[Phe(4-F)][NMeF][NMeNle][dP]DV[NMeL]Q[dPip]WY[Orn]CG-NH2; thioether N-13) needs its IC50 filled in; supply it.
1000 to 10000 nM
